Hello, the source for this data is patent US20230150970A1, in case you need it.

# TARGET_OF_ASSAY: AhR (Mus musculus, UniProt P30561)
# ASSAY_METHOD_TEXT: In Vitro Assay 2: XRE-luciferase reporter assay, antagonism in mouse cell line (Hepa1c1c7)
# Format: cell-based
# TEST_PARAMETERS: values marked #: AhR activating ligand kynurenine, 6 hours, read-out: Assay 2: AhR-Luc Mouse Antagonism (IC50)

COMPOUND | IC50
CN1CCN(c2cc(-c3ccc(Cl)cc3)nc(-c3cccnc3)n2)CC1 | 100 to 1000 nM
O[C@H]1CCN(c2cc(-c3ccc(C(F)(F)F)cc3)nc(-c3cncc(F)c3)n2)C1 | 10 to 100 nM
O=C1CN(c2cc(-c3ccc(Cl)cc3)nc(-c3cccnc3)n2)CCN1 | 100 to 1000 nM
O[C@H]1CCN(c2cc(-c3ccc(Cl)cc3)nc(-c3cncc(F)c3)n2)C1 | 10 to 100 nM
CC(=O)N[C@@H]1CN(c2cc(-c3ccc(Cl)cc3)nc(-c3cccnc3)n2)C[C@@H]1O | 10 to 100 nM
CC(=O)NC1CCN(c2cc(-c3ccc(Cl)cc3)nc(-c3cccnc3)n2)C1 (stereo not drawn) | 100 to 1000 nM
CC(=O)N1CCCN(c2cc(-c3ccc(Cl)cc3)nc(-c3cccnc3)n2)C1 | > 1000 nM
OCC1CCN(c2cc(-c3ccc(C(F)(F)F)cc3)nc(-c3cccnc3)n2)CC1 | 10 to 100 nM
O=C(CCO)N1CCN(c2cc(-c3ccc(Cl)cc3)nc(-c3cccnc3)n2)CC1 | 10 to 100 nM
